# Tested on: carbapenem-resistant clinical strain, WC-452
# assay-text: Checkerboard assay to examine synergy with antibiotics in CAA/HuS
# Type: cell-based, P. aeruginosa
# test-conditions: lysin + imipenem
Label yes (1) when FICI, Imipenem is at or above 0.2; otherwise label no (0).

>  <molecule>
GN147: Modified GN3, amino acid substitutions (R101D, R117H), SEQ ID NO: 5 (protein) MRTSQRGLSLIKSFEGLRLQAYQDSVGVWTIGYGTTRGVKAGMKISKDQAERMLLNDVQRFEPEVERLIKVPLNQDQWDALMSFTYNLGAANLESSTLRDLLNAGNYAAAAEQFPHWNKAGGQVLAGLTRRRAAERELFLGAA

>  <qualitative-label>
yes (1)

$$$$
>  <molecule>
GN123: Native lysin, GenBank YP_009217242.1, SEQ ID NO: 27 (protein, Pseudomonas phage PhiPA3) MTLLKKGDKGDAVKQLQQKLKDLGYTLGVDGNFGNGTDTVVRSFQTKMKLSVDGVVGNGTMSTIDSTLAGIKAWKTSVPFPATNKSRAMAMPTLTEIGRLTNVDPKLLATFCSIESAFDYTAKPYKPDGTVYSSAEGWFQFLDATWDDEVRKHGKQYSFPVDPGRSLRKDPRANGLMGAEFLKGNAAILRPVLGHEPSDTDLYLAHFMGAGGAKQFLMADQNKLAAELFPGPAKANPNIFYKSGNIARTLAEVYAVLDAKVAKHRA

>  <qualitative-label>
no (0)

$$$$
>  <molecule>
GN121: Modified GN37, C-terminal peptide RKKTRKRLKKIGKVLKWI, SEQ ID NO: 13 (protein) MTYTLSKRSLDNLKGVHPDLVAVVHRAIQLTPVDFAVIEGLRSVSRQKELVAAGASKTMNSRHLTGHAVDLAAYVNGIRWDWPLYDAIAVAVKAAAKELGVAIVWGGDWTTFKDGPHFELDRSKYRRKKTRKRLKKIGKVLKWI

>  <qualitative-label>
yes (1)

$$$$
>  <molecule>
GN37: Native lysin, WP_014102102.1/VanY, SEQ ID NO: 12; first disclosed in WO/2017/049233 (protein, listed as Micavibrio aeruginosavorus) MTYTLSKRSLDNLKGVHPDLVAVVHRAIQLTPVDFAVIEGLRSVSRQKELVAAGASKTMNSRHLTGHAVDLAAYVNGIRWDWPLYDAIAVAVKAAAKELGVAIVWGGDWTTFKDGPHFELDRSKYR

>  <qualitative-label>
yes (1)

$$$$
>  <molecule>
GN108: Native lysin, GenBank YP_009288673.1, SEQ ID NO: 26 (protein, Acinetobacter phage phiAB6) MILTKDGFSIIRNELFEGKLDQTQVDAINFIVEKATEYGLTYPEAAYLLATIYHETGLPSGYRTMQPIKEAGSDSYLRSKKYYPYIGYGYVQLTWEENYERIGKLIGIDLVKNPEKALEPLIAIQIAIKGMLNGWFTGVGFRRKRPVSKYNKQQYVAARNIINGKDKAELIAKYAIIFERALRSL

>  <qualitative-label>
no (0)

$$$$
>  <molecule>
GN150: Native lysin, WP_034684053.1/VanY, SEQ ID NO: 19 (protein, listed as Acinetobacter sp.) MSFKLGKRSLSNLEGVHPDLIKVVKRAIELTECDFTVTEGLRSKERQAQLLKEKKTTTSNSRHLTGHAVDLAAWVNNTVSWDWKYYYQIADAMKKAASELNVSIDWGGDWKKFKDGPHFELTWSKYPIKGAS

>  <qualitative-label>
yes (1)

$$$$
>  <molecule>
GN4: Native lysin, YP_002284361.1/Lysozyme, SEQ ID NO: 3; first disclosed in WO/2017/049233 (protein, Pseudomonas phage PAJU2) MRTSQRGIDLIKSFEGLRLSAYQDSVGVWTIGYGTTRGVTRYMTITVEQAERMLSNDIQRFEPELDRLAKVPLNQNQWDALMSFVYNLGAANLASSTLLKLLNKGDYQGAADQFPRWVNAGGKRLDGLVKRRAAERALFLEPLS

>  <qualitative-label>
no (0)

$$$$
>  <molecule>
GN92: Modified GN4, N-terminal peptide KFFKFFKFFK with linker, SEQ ID NO: 7 (protein) KFFKFFKFFKAGAGAGAGAGAGAGAGASMRTSQRGIDLIKSFEGLRLSAYQDSVGVWTIGYGTTRGVTRYMTITVEQAERMLSNDIQRFEPELDRLAKVPLNQNQWDALMSFVYNLGAANLASSTLLKLLNKGDYQGAADQFPRWVNAGGKRLDGLVKRRAAERALFLEPLS

>  <qualitative-label>
no (0)

$$$$
